system: P388 leukemia ip, CD2F1 mice, survival T/C; assay: NCI In Vivo Anticancer Drug Screen. Data for tumor model P388 Leukemia (intraperitoneal) in CD2F1 (CDF1) mice; details: endpoint: median survival time; dose: 100.0 mg/kg/injection; schedule: Q04DX002 (ip); vehicle: saline with Tween-80; higher = longer survival
Inconclusive results and toxic doses are left out.
parameter: T/C

Reference set (5 entries):
{"columns": ["molecule", "study-target", "T/C"],
 "data": [
  ["CCOC(=O)/C(=C(/[S-])SC)[n+]1ccc(C)cc1", "P388 leukemia ip, CD2F1 mice, survival T/C", "101 % of control"],
  ["CN=C(N)NN=C(c1ccc(I)cc1)c1ccc(I)cc1", "P388 leukemia ip, CD2F1 mice, survival T/C", "104 % of control"],
  ["COc1ccc2c3c1OC1c4[nH]ncc4C[C@H]4[C@@H](C2)N(C)CC[C@]314 (stereo partly drawn)", "P388 leukemia ip, CD2F1 mice, survival T/C", "108 % of control"],
  ["c1ccc2c(c1)ccc1ncc3ncccc3c12", "P388 leukemia ip, CD2F1 mice, survival T/C", "98 % of control"],
  ["O=c1cc(-c2ccccc2)oc2c(OCc3ccccc3)c(OCc3ccccc3)ccc12", "P388 leukemia ip, CD2F1 mice, survival T/C", "100 % of control"]
]}

Would you mind telling me what T/C value was observed for Cn1nnc(-c2ccccc2)n1 ?
107 % of control

Could you do the same for O=c1[nH]cc(Br)c2ccccc12 , please?
96 % of control

Another molecule to look at: COC(=O)C12CC(CCC1C13CCC4(OCCO4)C(C)(C)C1C(=O)OC3)C(C)C2O (stereo not drawn)
97 % of control

====

The entries below are paired with their reported T/C.
Test system: P388 leukemia ip, CD2F1 mice, survival T/C
Experiment: NCI In Vivo Anticancer Drug Screen. Data for tumor model P388 Leukemia (intraperitoneal) in CD2F1 (CDF1) mice
Conditions: endpoint: median survival time; dose: 400.0 mg/kg/injection; schedule: Q04DX002 (ip); vehicle: saline; higher = longer survival
Description: The antitumor activity of compounds was measured in mice bearing transplantable tumors. Survival or tumor size were measured and the results are expressed as the measurement made in the treated group (T) divided by the measurement made in the vehicle treated control group (C). The tumor model used in this assay is P388 Leukemia (intraperitoneal) in CD2F1 (CDF1) mice
Inconclusive results and toxic doses are left out.

Reference set (6 entries):
{"columns": ["molecule", "study-target", "parameter", "observed-value"],
 "data": [
  ["CC(C)c1cc(C2C(=O)c3ccccc3C2=O)cc(C(C)C)c1O", "P388 leukemia ip, CD2F1 mice, survival T/C", "T/C", "108 % of control"],
  ["COCCOC(=O)CCn1cc(F)c(=O)[nH]c1=O", "P388 leukemia ip, CD2F1 mice, survival T/C", "T/C", "93 % of control"],
  ["CC(Cc1ccccc1)NN1CCOC(c2ccccc2)C1C (configuration not stated)", "P388 leukemia ip, CD2F1 mice, survival T/C", "T/C", "101 % of control"],
  ["Nc1ccc(C2=Cc3ccc(N)cc3S2(=O)=O)cc1", "P388 leukemia ip, CD2F1 mice, survival T/C", "T/C", "101 % of control"],
  ["Cc1ccc(S(=O)(O)=S)cc1", "P388 leukemia ip, CD2F1 mice, survival T/C", "T/C", "102 % of control"],
  ["NC(=O)N/N=c1/oc2ccccc2cc1C(N)=O", "P388 leukemia ip, CD2F1 mice, survival T/C", "T/C", "96 % of control"]
]}

Entry under review: CCOP(=O)(OCC)C(C)NC(=O)C(C)NC(=O)c1cn(CC)c2nc(C)ccc2c1=O (configuration not stated) . Reported T/C?
95 % of control

====

test system: P388 leukemia ip, CD2F1 mice, survival T/C; assay: NCI In Vivo Anticancer Drug Screen. Data for tumor model P388 Leukemia (intraperitoneal) in CD2F1 (CDF1) mice; conditions: endpoint: median survival time; dose: 25.0 mg/kg/injection; schedule: Q01DX009 (ip); vehicle: other
Toxic doses and inconclusive results are not listed. How the source made its calls: active means survival T/C of 150% or more; inactive means T/C below 125% in these data.
Reply using exactly one outcome from y (active), n (inactive)

Some solved entries appear below for comparison.
{"columns": ["compound", "group"],
 "data": [
  ["NC(=O)Oc1cccc(OC(N)=O)c1", "n"],
  ["CC(C)C[NH-].CC(C)C[NH-].O.O.[Cl][Pt+2][Cl]", "y"],
  ["COc1ccc(OC)c(CC(C(C)=O)C(C)=O)c1", "n"],
  ["[Cl][Pt+2][Cl].[NH-]C1CCCCCCC1.[NH-]C1CCCCCCC1", "n"],
  ["c1cc2c3c(c1)c1cc4c(cc1c[n+]3CC2)OCO4", "y"]
]}

Would you mind telling me which call this test gave O=C(NC(Cc1ccc(F)cc1)C(=O)O)c1ccccc1 (configuration not stated) ?
n

Then this compound: CCOC(=O)C1C/C(=N\OS(=O)(=O)c2ccc(C)cc2)c2ccc(OC)c(OC)c2C1 (configuration not stated)
n

====

system: P388 leukemia ip, CD2F1 mice, survival T/C; experiment: NCI In Vivo Anticancer Drug Screen. Data for tumor model P388 Leukemia (intraperitoneal) in CD2F1 (CDF1) mice; conditions: endpoint: median survival time; dose: 200.0 mg/kg/injection; schedule: Q01DX009 (ip); vehicle: Klucel (hydroxypropylcellulose) (HPC); higher = longer survival
Inconclusive results and toxic doses are left out.
parameter: T/C

See these solved cases before continuing.
{"columns": ["compound", "T/C"],
 "data": [
  ["CCOC(=O)C1(COS(=O)(=O)c2ccc(C)cc2)C(=O)Nc2ccccc21 (stereo unspecified)", "97 % of control"],
  ["C/C=C/C(=O)OCC1CCN(C)C1 (stereo unspecified)", "89 % of control"],
  ["c1ccc2sc(SCSc3nc4ccccc4s3)nc2c1", "114 % of control"],
  ["N#CC1C(=O)NC(=O)C(C#N)C1C(Cl)(Cl)Cl (stereo unspecified)", "102 % of control"],
  ["COc1cc2c(c(OC)c1OC)CCCC2=O", "117 % of control"]
]}

What is its T/C for P388 leukemia ip, CD2F1 mice, survival T/C? Entry: CCC1C(=O)OCCOCCOCCOCCOCCOC1=O
99 % of control

Proceed to O=C1NC(=O)C2(c3ccccc3)CCN1C2=O (stereo unspecified)
104 % of control

Try this compound next: O=C1NC(=O)C23CC=CCC12CCCC3 (stereo unspecified)
100 % of control

Now consider CSC(=Nc1ccc(N(C)C)cc1)NC#N .
92 % of control

Also need NC(CC(=O)O)C(=O)O (stereo unspecified) , thanks.
91 % of control

Repeat with COc1ccc(N=Cc2ccccc2P(c2ccccc2)c2ccccc2)cc1
100 % of control

Same for O=C1NCCCN1C(=O)Nc1ccc(Cl)c(Cl)c1
95 % of control

Check COc1ccc(CCN2C(=O)C(=O)N(c3ccc(Cl)c(Cl)c3)C2=O)cc1OC too.
103 % of control

And for Cc1cc(NC(=S)SCc2ccc3c(c2)OCO3)ccc1Cl ?
114 % of control

// next record O=C(O)C(O)COc1nsnc1N1CCOCC1 (stereo unspecified)
107 % of control

Try the compound Cc1[nH]nc2c(Cc3ccco3)n[nH]c(=O)c12
100 % of control

Next entry: COc1cc(/C=C/c2cccs2)oc(=O)c1
103 % of control

Note, next up: O=C(O)CC1Sc2ccccc2NC1=O (stereo unspecified)
108 % of control

Thanks! And Cc1ccc(C2C(C#N)C(=O)NC(=O)C2C#N)cc1 (stereo unspecified) ?
99 % of control

# repeat for O=C(CCn1c(CN2CCN(C/C=C/c3ccccc3)CC2)nc2ccccc21)c1ccccc1
111 % of control

Also check CC(C)(OCc1ccccc1)c1ccccc1P(c1ccccc1)c1ccccc1
110 % of control

====

tested on: P388 leukemia ip, CD2F1 mice, survival T/C; assay: NCI In Vivo Anticancer Drug Screen. Data for tumor model P388 Leukemia (intraperitoneal) in CD2F1 (CDF1) mice; settings: endpoint: median survival time; dose: 50.0 mg/kg/injection; schedule: Q04DX002 (ip); vehicle: saline with Tween-80; higher = longer survival
Toxic doses and inconclusive results are not listed.
Documented T/C across a set of compounds

Tell me the measured T/C of COc1ccc2c(c1)NC(=O)Cn1nnnc1-2 , please.
91 % of control

Likewise for CSc1sc(C#N)c2nc3c(nc12)-c1cccc2cccc-3c12 ?
88 % of control

Same thing, different compound: C/C(=N\N=C(N)N)c1ccc2c(c1)Cc1ccccc1-2
103 % of control

Now consider [Br][Pd][Br].[NH-]C1CCCC2CCC[N-]C12 (stereo not given) .
98 % of control

Param item: O=C1NC(N(CCCl)CCCl)=NC1(c1ccccc1)c1ccccc1
94 % of control

Same question for CN=C(N)N/N=C(\C)c1ccc(-c2ccccc2)cc1 please.
106 % of control

Queued: CNC(=O)Oc1[nH]c(=O)ncc1I
100 % of control

Again, but for CSC(/C=C1\C=CC=CN1Cc1ccccc1)=NC#N
92 % of control

Try this compound too: O=c1[nH]cc(Br)c2ccccc12
93 % of control

Another compound: C=CC(Br)CCCBr (stereo not given)
101 % of control
